system name: recombinant human ACC2 (Homo sapiens (Human), UniProt O00763)
Sequence (O00763 27-2458): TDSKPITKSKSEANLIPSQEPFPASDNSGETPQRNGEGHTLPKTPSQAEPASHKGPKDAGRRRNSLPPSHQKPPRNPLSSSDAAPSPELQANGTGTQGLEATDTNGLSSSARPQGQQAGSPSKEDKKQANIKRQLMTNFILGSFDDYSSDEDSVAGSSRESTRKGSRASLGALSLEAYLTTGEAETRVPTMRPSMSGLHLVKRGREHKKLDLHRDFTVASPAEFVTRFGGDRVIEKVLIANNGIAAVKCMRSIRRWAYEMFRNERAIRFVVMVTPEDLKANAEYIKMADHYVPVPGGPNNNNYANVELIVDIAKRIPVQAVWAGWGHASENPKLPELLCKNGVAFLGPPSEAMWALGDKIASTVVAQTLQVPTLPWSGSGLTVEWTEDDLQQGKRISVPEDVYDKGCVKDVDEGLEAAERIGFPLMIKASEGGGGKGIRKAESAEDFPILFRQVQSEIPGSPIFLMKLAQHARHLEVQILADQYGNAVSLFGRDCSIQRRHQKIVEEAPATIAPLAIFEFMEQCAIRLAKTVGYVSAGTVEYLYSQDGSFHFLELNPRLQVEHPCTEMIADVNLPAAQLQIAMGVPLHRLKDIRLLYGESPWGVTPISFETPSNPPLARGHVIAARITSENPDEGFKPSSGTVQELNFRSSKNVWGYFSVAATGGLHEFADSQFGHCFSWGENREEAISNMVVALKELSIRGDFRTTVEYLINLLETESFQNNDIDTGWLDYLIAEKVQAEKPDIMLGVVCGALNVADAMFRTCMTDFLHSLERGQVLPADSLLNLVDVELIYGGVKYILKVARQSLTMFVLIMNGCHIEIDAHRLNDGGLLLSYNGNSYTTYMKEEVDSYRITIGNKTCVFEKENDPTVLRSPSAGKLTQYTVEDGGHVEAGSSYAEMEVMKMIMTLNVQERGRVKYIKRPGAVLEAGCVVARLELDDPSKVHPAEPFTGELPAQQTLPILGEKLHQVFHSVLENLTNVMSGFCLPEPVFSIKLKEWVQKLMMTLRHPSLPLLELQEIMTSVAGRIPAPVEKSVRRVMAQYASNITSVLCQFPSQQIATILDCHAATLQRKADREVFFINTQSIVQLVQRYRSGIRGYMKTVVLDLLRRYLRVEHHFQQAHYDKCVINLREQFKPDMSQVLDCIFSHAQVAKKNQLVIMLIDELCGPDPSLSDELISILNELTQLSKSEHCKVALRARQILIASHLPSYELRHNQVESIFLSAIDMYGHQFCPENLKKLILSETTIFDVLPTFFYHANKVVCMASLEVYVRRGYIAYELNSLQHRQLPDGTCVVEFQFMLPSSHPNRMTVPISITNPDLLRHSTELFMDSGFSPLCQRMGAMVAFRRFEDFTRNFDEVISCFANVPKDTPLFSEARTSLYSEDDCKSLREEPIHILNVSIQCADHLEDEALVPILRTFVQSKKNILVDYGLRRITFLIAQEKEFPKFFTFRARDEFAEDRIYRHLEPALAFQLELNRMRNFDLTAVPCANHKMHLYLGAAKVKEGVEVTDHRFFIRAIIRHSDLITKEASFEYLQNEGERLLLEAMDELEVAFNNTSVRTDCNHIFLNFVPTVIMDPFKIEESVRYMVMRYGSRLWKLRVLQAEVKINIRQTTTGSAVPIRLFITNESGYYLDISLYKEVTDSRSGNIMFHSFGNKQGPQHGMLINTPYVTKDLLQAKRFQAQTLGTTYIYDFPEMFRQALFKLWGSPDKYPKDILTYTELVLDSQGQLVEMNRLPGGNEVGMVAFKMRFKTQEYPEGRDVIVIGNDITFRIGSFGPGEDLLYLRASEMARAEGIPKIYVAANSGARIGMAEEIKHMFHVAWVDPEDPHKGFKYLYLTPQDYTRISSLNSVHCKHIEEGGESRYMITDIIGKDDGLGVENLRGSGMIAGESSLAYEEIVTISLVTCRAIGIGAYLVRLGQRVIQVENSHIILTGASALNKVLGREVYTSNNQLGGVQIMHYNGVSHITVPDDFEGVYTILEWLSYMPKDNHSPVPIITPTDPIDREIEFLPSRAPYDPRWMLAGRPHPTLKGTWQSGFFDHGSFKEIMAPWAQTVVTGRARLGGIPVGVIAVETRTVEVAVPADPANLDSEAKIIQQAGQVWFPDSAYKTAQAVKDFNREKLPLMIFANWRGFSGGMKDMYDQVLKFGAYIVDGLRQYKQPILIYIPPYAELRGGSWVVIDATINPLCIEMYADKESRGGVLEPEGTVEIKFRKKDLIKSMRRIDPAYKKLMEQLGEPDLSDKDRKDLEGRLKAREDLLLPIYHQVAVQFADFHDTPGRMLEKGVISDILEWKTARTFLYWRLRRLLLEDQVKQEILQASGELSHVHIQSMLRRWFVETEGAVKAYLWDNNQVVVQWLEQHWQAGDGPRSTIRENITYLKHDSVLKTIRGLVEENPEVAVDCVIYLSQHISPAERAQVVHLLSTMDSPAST
procedure summary: Measurement of inhibitory activity on human ACC2 (MALDI-TOF MS, acetyl CoA to malonyl CoA conversion)
Assay type: biochemical
assay context: Tables 155-159
Could you please report measured IC50 for the items listed next?
One number for each entry, in nM.

Study these solved cases before continuing.
{"compound": "CCOc1ccc2nc(O[C@H]3CC[C@H](OC[C@H](C)NC(C)=O)CC3)n(C)c2c1Br [Compound I-605]", "metric": "IC50", "measured": 13}
{"compound": "CCOc1nc2ccc(O[C@H]3CC[C@H](OC[C@H](C)NC(C)=O)CC3)cc2n1C [Compound I-506]", "metric": "IC50", "measured": 249}
{"compound": "CCOc1nc2ccc(OC[C@H]3C[C@H](OC[C@H](C)NC(C)=O)C3)nc2n1C [Compound I-519]", "metric": "IC50", "measured": 170}
{"compound": "CC(=O)N[C@@H](C)CO[C@H]1CC[C@H](Oc2nc3c(F)cc(OC4CN(C(C)=O)C4)c(F)c3n2C)CC1 [Compound I-616]", "metric": "IC50", "measured": 240}
{"compound": "CC(=O)N[C@@H](C)CO[C@H]1CC[C@H](Oc2ccc3nc(Cl)sc3c2F)CC1 [Compound I-124]", "metric": "IC50", "measured": 37}
{"compound": "CC(=O)N[C@@H](C)CO[C@H]1CC[C@H](Oc2ncc3cc(OCC(F)F)ccc3n2)CC1 [Compound I-554]", "metric": "IC50", "measured": 620}

For the next question, use this compound.
QUERY: What value of IC50 has been recorded for this entry: CC(=O)N[C@@H](C)CO[C@H]1CC[C@H](Oc2nc3ccc(OCC(F)F)nc3s2)CC1 [Compound I-553]
RESULT: 196

* * *

Could you please report measured pIC50 for the items listed next?
system name: recombinant human ACC2 (Homo sapiens (Human), UniProt O00763)
procedure summary: Measurement of inhibitory activity on human ACC2 (MALDI-TOF MS, acetyl CoA to malonyl CoA conversion)
Format: biochemical
assay context: Tables 155-159
From the text: Preparation 1: Preparation of Recombinant Human ACC2 After a cDNA encoding human ACC2 (27 amino acid residue to 2458 amino acid residues from the N-terminus) was cloned from human kidney cDNA library (Clontech), human ACC2 gene containing His-tag sequence at 5′ terminus was inserted into pFastBac1 (Invitrogen). Recombinant baculovirus was generated using Bac-to-Bac baculovirus expression system (Invitrogen) according to the manufacturer's protocol. […]
Answers are plain numbers, as −log10 of the molar value.

Study these solved cases before continuing.
{"compound": "CC(=O)N[C@@H](C)CO[C@H]1CC[C@H](Oc2nc3c(F)cc(OCC4CC4)c(F)c3n2C)CC1", "measured": 8.22}
{"compound": "CC(=O)N[C@@H](C)CO[C@H]1C[C@H](COc2ncnc3c2cc(C)n3CC2CC2)C1", "measured": 7.06}
{"compound": "CC(=O)N[C@@H](C)CO[C@H]1C[C@H](COc2ccc3nc(OCC4(C#N)CC4)sc3n2)C1", "measured": 7.21}
{"compound": "CC(=O)N[C@@H](C)CO[C@H]1C[C@H](COc2ncnc(OC(C)c3ccccc3)c2Cl)C1 (stereo partly drawn)", "measured": 6.92}
{"compound": "CC(=O)N[C@@H](C)CO[C@H]1C[C@H](COc2nccc(N3CCCCC3)c2Cl)C1", "measured": 7.29}

# per-item lookup of pIC50; items listed below
1. COc1cnc(-c2cnc(O[C@H]3CC[C@H](OC[C@H](C)NC(C)=O)CC3)c(F)c2)nc1
2. CC(=O)N[C@@H](C)CO[C@H]1CC[C@H](Oc2ccc3nc(OCC(C)(C)O)sc3c2F)CC1
3. CC(=O)N[C@@H](C)CO[C@H]1C[C@](C)(COc2ccc3nc(OC4CC4)sc3n2)C1

RESULT:
7.21
6.86
7.28

QUERY: What value of pIC50 has been recorded for this entry: `CC(=O)N[C@@H](C)CO[C@H]1CC[C@H](Oc2nc3ccc(OCC(F)F)cc3n2C)CC1`
RESULT: 7.07

* * *

system name: recombinant human ACC2 (Homo sapiens (Human), UniProt O00763)
procedure summary: Measurement of inhibitory activity on human ACC2 (MALDI-TOF MS, acetyl CoA to malonyl CoA conversion)
Type: biochemical
assay context: Tables 155-159
Could you mark each record YES if its IC50 falls strictly under 40 nM, and NO if it equals or exceeds it?

{"molecule": "CC(=O)N[C@@H](C)CO[C@H]1C[C@H](COc2nccc(-n3cc(C(F)(F)F)cn3)c2Cl)C1", "assigned label": "NO"}

QUERY: In the record for `CCOc1nc2ccc(OC[C@H]3C[C@H](OC[C@H](C)NC(C)=O)C3)nc2s1` , is IC50 less than 40 nM?
RESULT: YES

QUERY: Would you kindly repeat that for `CC(=O)N[C@@H](C)CO[C@H]1C[C@H](COc2nc(C)nc3c2ccn3CC2CC2)C1` ?
RESULT: NO

QUERY: Would you kindly repeat that for `CC(=O)N[C@@H](C)CO[C@H]1C[C@H](COc2ncnc(OCC3CC3)c2Cl)C1` ?
RESULT: YES

QUERY: Would you kindly repeat that for CC(=O)N[C@@H](C)CO[C@H]1C[C@](F)(COc2ccc3nc(OC(C)CF)sc3n2)C1 (stereo partly drawn) ?
RESULT: NO

* * *

system name: recombinant human ACC2 (Homo sapiens (Human), UniProt O00763)
procedure summary: Measurement of inhibitory activity on human ACC2 (MALDI-TOF MS, acetyl CoA to malonyl CoA conversion)
Type: biochemical
assay context: Tables 155-159
Could you please report measured IC50 for the items listed next?

{"compound": "CC(=O)N[C@@H](C)CO[C@H]1CC[C@H](Oc2nc3cnc(OCC4CC4(F)F)c(Cl)c3n2C)CC1 (stereo partly shown) [Compound I-708]", "system name": "recombinant human ACC2 (Homo sapiens (Human), UniProt O00763)", "IC50": "5 nM"}
{"compound": "CCOc1nc2cnc(O[C@H]3CC[C@H](OC[C@H](C)NC(C)=O)CC3)c(F)c2s1 [Compound I-210]", "system name": "recombinant human ACC2 (Homo sapiens (Human), UniProt O00763)", "IC50": "6 nM"}

# per-item lookup of IC50; items listed below
1. C[C@@H](CO[C@H]1CC[C@H](Oc2nc3c(F)cc(OC4CC4)c(F)c3n2C)CC1)NC(=O)CO [Compound I-668]
2. CC(=O)N[C@@H](C)CO[C@H]1CC[C@H](Oc2ccc3nc(N4CC(F)(F)C4)sc3c2F)CC1 [Compound I-175]

RESULT:
1: 7 nM; 2: 11 nM

* * *

system name: recombinant human ACC2 (Homo sapiens (Human))
procedure summary: Measurement of inhibitory activity on human ACC2 (MALDI-TOF MS, acetyl CoA to malonyl CoA conversion)
Assay type: biochemical
assay context: Tables 155-159
metric: pIC50
Give bare numbers, as −log10 of the molar value.

Study these solved cases before continuing.
{"molecule": "CC(=O)N[C@@H](C)CO[C@H]1C[C@H](COc2nccc3c2cnn3CC2CC2(F)F)C1 (stereo partly shown)", "metric": "pIC50", "measured": 6.80}
{"molecule": "CCOc1nc2ccc(O[C@H]3CC[C@H](OC[C@H](C)NC(C)=O)CC3)nc2n1CC", "metric": "pIC50", "measured": 7.15}
{"molecule": "CC(=O)N[C@@H](C)CO[C@H]1C[C@H](COc2cc(C)c3nc(OC4CC4)sc3n2)C1", "metric": "pIC50", "measured": 7.00}

# per-item lookup of pIC50; items listed below
1. CC(=O)N[C@@H](C)CO[C@H]1C[C@H](COc2nccc3c2cnn3CC2CC2)C1
2. CC(=O)N[C@@H](C)CO[C@H]1C[C@H](COc2ncnc3c2ccn3C(C)C)C1
3. CC(=O)N[C@@H](C)CO[C@H]1CC[C@H](Oc2nc3cnc(OC(F)F)c(Cl)c3n2C)CC1
4. CC(=O)N[C@@H](C)CO[C@H]1C[C@H](COc2nccc(-c3ccc(C(F)(F)F)cc3)c2Cl)C1

RESULT:
1: 6.81; 2: 6.80; 3: 7.06; 4: 7.17

* * *

system name: recombinant human ACC2 (Homo sapiens (Human), UniProt O00763)
procedure summary: Measurement of inhibitory activity on human ACC2 (MALDI-TOF MS, acetyl CoA to malonyl CoA conversion)
Format: biochemical
assay context: Tables 155-159
metric: pIC50
Give bare numbers, as −log10 of the molar value.

{"molecule": "CC(=O)N[C@@H](C)CO[C@H]1CC[C@H](Oc2nc3ccc(OC(C)C)cc3n2C)CC1", "pIC50": 7.00}
{"molecule": "CC(=O)N[C@@H](C)CO[C@H]1CC[C@H](Oc2nc3ccc(C4CC4)cc3n2C)CC1", "pIC50": 6.89}
{"molecule": "CC(=O)N[C@@H](C)CO[C@H]1CC[C@H](Oc2ncc3nc(N4CCC4)sc3c2F)CC1", "pIC50": 8.10}
{"molecule": "CC(=O)N[C@@H](C)CO[C@H]1CC[C@H](Nc2nc3c(F)cc(OCC(F)F)c(F)c3n2C)CC1", "pIC50": 6.13}
{"molecule": "CC(=O)N[C@@H](C)CO[C@H]1CC[C@H](Oc2cc3sc(OCC4(C)CC4)nc3cn2)CC1", "pIC50": 7.77}
{"molecule": "CC(=O)N[C@@H](C)CO[C@H]1CC[C@H](Oc2nc3cnc(OCC(F)F)c(F)c3n2C)CC1", "pIC50": 8.05}

For the next question, use this molecule.
QUERY: What value of pIC50 has been recorded for this entry: CC(=O)N[C@@H](C)CO[C@H]1C[C@H](COc2ncnc3c2ccn3C(C)C2CC2)C1 (stereo partly shown)
RESULT: 6.89
